Each recorded value in this set is attributed to PubChem BioAssay (NCI).

Exercise: for every item that follows, state its recorded growth.
- System: LOX IMVI melanoma
- test: NCI-60 one-dose screen, 48 h (100 = growth as untreated, 0 = no growth, -100 = all killed)
- conditions: 10 µM unless noted
About 83,000 compounds went through this panel and 20% of them were active in at least one assay; those are over-represented in the sample as a whole. The source made the active and inactive calls. How the source made its calls: active means growth percent below 10; inactive means the rest.

Would you mind listing growth for each of the following compounds?
1. CCN(CC)CC[n+]1cc2cc(OC)c(OC)cc2c2ccc3cc4c(cc3c21)OCO4
2. COc1ccc(-c2cnc3c(-c4cccc5ncccc45)cnn3c2)cc1

Result:
-85.8% (active)
72.4% (inactive)

###

- System: RXF 393 renal
- test: NCI-60 one-dose screen, 48 h (100 = growth as untreated, 0 = no growth, -100 = all killed)
- conditions: 10 µM unless noted
The panel holds about 83,000 compounds, 20% with a hit somewhere; the sample as a whole holds those more often.
Field: growth. Provide a value for each of the compounds that follow.
Give bare numbers, in %.

N=C1C(c2nc3ccccc3s2)=C(O)CN1c1cc(Cl)cc(Cl)c1 ... 63.9

Provide growth for all items below, preserving their order.
1. C=C1C(=O)O[C@H]2[C@H]1CC/C(CNS(=O)(=O)c1cccc3ccccc13)=C\CC[C@@]1(C)O[C@@H]21
2. COc1ccc2[nH]c(O)c(/C=c3/cc4c(c(-c5ccc(F)cc5)n3)=Nc3ccccc3-4)c2c1
3. Cc1c2cc[nH]c(=O)c2c(C)c2c1[nH]c1cc(OCCN3CCN(C)CC3)ccc12
4. CC(Sc1nc2ccccc2c(=O)n1CCc1ccc(S(N)(=O)=O)cc1)C(=O)Nc1ccc(Cl)cc1 (stereo not drawn)
5. COc1cc2c(cc1OC)C(=O)/C(=C/c1cc(C)c(O)c(C)c1)S2

Result:
1. -14.9
2. 81.5
3. -25
4. 72.4
5. -6.02

Look up growth for the entries below, preserving their order.
1. COc1ccc(/C=C/c2nc(Nc3ccc(S(=O)(=O)Nc4cc(C)on4)cc3)c3ccccc3n2)cc1
2. Cc1cc2nc3c4cc([N+](=O)[O-])ccc4n(CCN(C)C)c3nc2cc1C
3. O=C(CSc1nc2ccccc2[nH]1)NCc1ccccc1
4. C[C@H]1[C@H]2[C@H]3CC[C@@H]4[C@@]5(C)CC[C@H](O)C(C)(C)[C@@H]5CC[C@@]4(C)[C@]3(C)CC[C@]23CO[C@]1(C)[C@@H](C(=O)/C=C\c1ccco1)C3
5. CCN(CC)CCOc1ccc(NC(=O)C(C(C)C)N2C(=O)/C(=C/c3ccc(Br)cc3)SC2=S)cc1 (stereo not drawn)
6. COc1cc(C2C3CC4CCCC[C@H]4N3[C@@]3(C(=O)Nc4cc(Cl)ccc43)C2C(=O)c2nc3ccccc3[nH]2)cc(OC)c1OC (stereo partly drawn)

Result:
1: 113; 2: -50.6; 3: 101; 4: 110; 5: 71.6; 6: 51.1

Batch of 5 compounds: report growth for each.
1. COc1ccc(C(=O)c2nc3ccccc3n2CC(=O)c2ccc(F)cc2)cc1
2. COc1cccc(C(=O)NNc2nc(Cl)nc(N3CCN(C(c4ccccc4)c4ccccc4)CC3)n2)c1
3. Cn1nc(CC#N)c2c(=N)n(N)cnc21
4. C=C(C)[C@@H]1CC[C@]2(C(=O)N[C@@H](Cc3ccccc3)C(=O)OC)CC[C@]3(C)[C@H](CC[C@@H]4[C@@]5(C)CCC(=O)C(C)(C)[C@@H]5CC[C@]43C)[C@@H]12
5. Nc1c(S(=O)(=O)O)cc2c3c(cccc13)C(=O)OC2=O

Result:
89.1
78.4
112
101
131

Task: For `Cc1ccc(CNc2c3ccccc3nc3cc(NC(=O)CCN4CCCC4)ccc23)cc1` , write its growth.
Result: 1.55
